- method notes: Stability of the compounds: buffer hydrolysis (half-times, shelf-life)
- Type: physicochemical
- condition: pH 4.2; buffer pH 4.20, ionic strength 0.5, 37°C; read-out: Half-times in buffers at 37°C, T½, pH 4.20 (converted)
Kind request: treat 90 days as inclusive, so half-life at 90 days or higher is MET, anything lower is NOT MET.

Prompt: # check: half-life of CC[C@H](C(=O)OCc1ccc(COC(=O)[C@@H](CC)[C@H](COC(=O)C2CC2)Cc2cncn2C)cc1)[C@H](COC(=O)C1CC1)Cc1cncn1C is greater than or equal to 90 days
Completion: MET

Prompt: // inclusive: half-life at least 90 days? input: CC[C@H](C(=O)OCc1ccccc1)[C@H](COC(=O)c1ccc(C(=O)OC[C@H](Cc2cncn2C)[C@H](CC)C(=O)OCc2ccccc2)cc1)Cc1cncn1C
Completion: NOT MET

Prompt: Please indicate if the recorded half-life for CCCC(=O)OC[C@H](Cc1cncn1C)[C@H](CC)C(=O)OCc1ccc(COC(=O)[C@@H](CC)[C@H](COC(=O)CCC)Cc2cncn2C)cc1 meets or exceeds 90 days.
Completion: MET

Prompt: Assess whether reported half-life for CC[C@H](C(=O)OCCCOC(=O)[C@@H](CC)[C@H](CO)Cc1cncn1C)[C@H](CO)Cc1cncn1C sits at 90 days or higher.
Completion: NOT MET
